SYSTEM_NAME: human OX2R (Homo sapiens, UniProt O43614)
Sequence (O43614 whole entry): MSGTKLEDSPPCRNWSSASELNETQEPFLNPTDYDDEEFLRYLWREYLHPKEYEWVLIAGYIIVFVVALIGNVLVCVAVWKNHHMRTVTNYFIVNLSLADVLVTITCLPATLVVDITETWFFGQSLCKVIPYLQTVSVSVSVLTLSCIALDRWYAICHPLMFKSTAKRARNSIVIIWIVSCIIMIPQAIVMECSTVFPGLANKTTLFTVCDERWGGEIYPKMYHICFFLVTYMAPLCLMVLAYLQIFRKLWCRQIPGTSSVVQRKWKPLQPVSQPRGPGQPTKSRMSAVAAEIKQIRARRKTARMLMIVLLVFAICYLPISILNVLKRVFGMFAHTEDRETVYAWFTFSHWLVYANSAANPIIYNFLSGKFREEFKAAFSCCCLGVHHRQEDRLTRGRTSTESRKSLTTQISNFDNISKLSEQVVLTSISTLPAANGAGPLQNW
METHOD_DESCRIPTION: Evaluation of agonist activity against OX2R (intracellular calcium, Fura-2AM, FDSS7000, CHOOX2R cells)
STATED_CONDITIONS: CHO cells expressing human OX2R; calcium fluorescence ratio 340/380 nm; 10^-11.5 M to 10^-5 M
EC50 listing for selected compounds.

> print(dat)
                                   compound     value
1  CCCCCCCCOc1ccc(N2CCCN(c3cccc(NS(=O)(=O)c4cc(-c5cccc(C(=O)N(C)C)c5)ccc4OC)c3)C2=O)cc1 [Example 11]  > 500 nM
2  COc1ccc(-c2cccc(C(=O)N(C)C)c2)cc1S(=O)(=O)Nc1cccc(N2CCCN(c3ccc(Oc4ccccc4)cc3)C2=O)c1 [Example 12]    217 nM
3  CCOc1ccc(N2CCCN(c3cccc(NS(=O)(=O)c4cc(-c5cccc(C(=O)N(C)C)c5)ccc4OC)c3)C2=O)cc1 [Example 6]   2.87 nM
4  COc1ccc(-c2cccc(C(=O)N(C)C)c2)cc1S(=O)(=O)Nc1cccc(N2CCCN(c3ccc(OCC(F)(F)F)cc3)C2=O)c1 [Example 9]     20 nM
5  COc1ccc(-c2cccc(C(=O)N(C)C)c2)cc1S(=O)(=O)Nc1cccc(N2CCCN(c3ccc(C)cc3)C2=O)c1 [Example 2]   5.12 nM
6  CCCCc1ccc(N2CCCN(c3cccc(NS(=O)(=O)c4cc(-c5cccc(C(=O)N(C)C)c5)ccc4OC)c3)C2=O)cc1 [Example 13]   7.52 nM
7  CCCc1ccc(N2CCCN(c3cccc(NS(=O)(=O)c4cc(C(C)C)ccc4OC)c3)C2=O)cc1 [Example 19]   19.6 nM

Pending compound:
Query: For the compound [2H]C([2H])([2H])Oc1ccc(-c2cccc(C(=O)N(C)C)c2)cc1S(=O)(=O)Nc1cccc(N2CCCN(c3ccc(CCC)cc3)C2=O)c1 [Example 16] , give its measured EC50 value.
Reply: 0.843 nM
